In this section we review reported pIC50 values for a set of compounds.
Biological target: KRasG12C (Homo sapiens, UniProt P01116, G12C)
Construct: biotin (biotinylated); made in house
Sequence (P01116 1-188 isoform P01116-2 G12C): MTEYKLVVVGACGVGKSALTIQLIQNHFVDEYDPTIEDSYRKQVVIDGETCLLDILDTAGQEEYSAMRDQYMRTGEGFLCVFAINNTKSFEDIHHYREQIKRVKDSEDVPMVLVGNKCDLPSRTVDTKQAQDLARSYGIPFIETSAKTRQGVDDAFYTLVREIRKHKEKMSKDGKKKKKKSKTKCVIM
Assay: KRasG12C functional assay (HTRF/FRET nucleotide exchange and Raf RBD binding)
Assay type: biochemical
Conditions: GDP loaded biotinylated KRasG12C, samples incubated for 4 hrs, FRET readout; single experiment or average of two or more; read-out: KRasG12C functional assay IC50
Method: All enzyme and substrate solutions were prepared in assay buffer containing 20 mM HEPES (pH 7.5), 5 mM MgCl2, 150 mM NaCl, and 0.01% Tween 20. […] This is detected simultaneously via the specific binding interaction between active GTPγS KRas^G12C with GST-Raf RBD which brings the europium and XL665 into close proximity enabling an increased FRET signal to be detected on a Pherastar (BMG) plate reader equipped with the HTRF filter module. […]
pIC50: −log10 of the molar value.
observation.type: pIC50

• C=CC(=O)N1CCN2Cc3c(c(Cl)c(-c4c(O)cccc4F)n4cnnc34)OC[C@H]2C1 (single isomer, unassigned) [Example 71] = 6.27
• C=CC(=O)N1CCN2Cc3cc(F)c(-c4c(C)ccc5[nH]cnc45)c(Cl)c3OC[C@H]2C1 (single isomer, unassigned) [Example 18] = 4.54
• C=CC(=O)N1CCN2Cc3cc(F)c(-c4c(C)ccc5cc[nH]c(=O)c45)c(Cl)c3OC[C@H]2C1 (single isomer, unassigned) [Example 29] = 6.79
• C=CC(=O)N1CCN2C(=O)c3c(O)cc(-c4c(O)cccc4F)c(Cl)c3OC[C@H]2C1 = 6.99
• C#Cc1nc2c(c(Cl)c1-c1c(O)cccc1Cl)OC[C@@H]1CN(C(=O)C=C)CCN1C2 (single isomer, unassigned) = 7.89
• C#Cc1c2c(cc(Cl)c1-c1c(C)cccc1O)CN1CCN(C(=O)C=C)C[C@@H]1CO2 (single isomer, unassigned) [Example 62] = 4.80
